Tested on: HepG2
Test description: cell viability relative to DMSO; higher = less toxic
Condition set: 72 h; 10 nM
Assay readout: cell viability (%)
Numbers only, in %.

Answered cases to consult:
Problem: Entry CN1CCN(c2ccc(Nc3ncc4cc(C#N)c(=O)n(C5CCCC5)c4n3)cc2)CC1 has what cell viability?
Result: 99.7

Problem: Entry CS(=O)(=O)N1CCc2c(-c3cnc(N)nc3)nc(N3CCOCC3)nc21 has what cell viability?
Result: 101

Problem: Entry CC(=O)c1ccc2c(c1)[C@H](NC(=O)c1ccc(F)c(Cl)c1)[C@H](O)C(C)(C)O2 has what cell viability?
Result: 95.3

Problem: Entry COc1cc2c(NC3CCN(C)CC3)nc(N3CCCN(C)CC3)nc2cc1OCCOCCN(C)C has what cell viability?
Result: 107

Problem: Entry Cc1nc2c(c(=O)[nH]1)CSCC2 has what cell viability?
Result: 101

Now for another entry.
Problem: Entry O=C(O)c1ccc(N2N=C(Cc3ccccc3)/C(=C\c3ccc(-c4ccccc4F)o3)C2=O)cc1 has what cell viability?
Result: 110

###

Test system: U2OS
Test description: cell viability relative to DMSO; higher = less toxic
Condition set: 72 h; 100 nM
Assay readout: cell viability (%)
One number for each entry, in %.

Problem: Entry CN1Cc2c(N)cccc2C(c2ccccc2)C1 (stereo not given) has what cell viability?
Result: 102

Problem: Entry Cc1nc2cnc3ccc(C#Cc4cccnc4)cc3c2n1-c1ccc(C(C)(C)C#N)cc1 has what cell viability?
Result: 88.8

Problem: Entry CN(C)c1nc(N(C)C)nc(N(C)C)n1 has what cell viability?
Result: 96.5

Problem: Entry FC(F)(F)c1cc(NC(=S)Nc2ccc(Br)cc2-c2nnn[nH]2)cc(C(F)(F)F)c1 has what cell viability?
Result: 97.7

Problem: Entry NNCCc1ccccc1 has what cell viability?
Result: 94.6

Value sought for every listed compound: cell viability.
1. COc1ccc(C(=O)NCc2cccnc2)cc1C(=O)NCc1cccnc1 [picotamide]
2. CC(NC(=O)c1ccccc1/N=C/c1c(O)ccc2ccccc12)c1ccccc1 (stereo not given)
3. COc1cc(Oc2ccnc3cc(OC)c(OC)cc23)ccc1NC(=O)NC(C)c1nccs1 (stereo not given)
4. CC(C)CCNc1ncccc1C(=O)N1CCN(Cc2ccccc2)CC1
5. O=C(CSc1nc2c(c(=O)n1-c1ccccc1)SCC2)Nc1ccc(-c2ccccc2)cn1

Result:
1. 92.8
2. 96.1
3. 93.8
4. 95.5
5. 93.4

###

Give cell viability for every item shown.
Tested on: Calu-3
Test description: cell viability relative to DMSO; higher = less toxic
Condition set: 72 h; 10000 nM
Give bare numbers, in %.

Answered cases to consult:
Problem: Entry Oc1ccc(Cl)c2c1CCC2 has what cell viability?
Result: 96.9

Problem: Entry O=C(O)c1cc(O)c2c3nc4ccccc4oc-3cc(=O)c2n1 has what cell viability?
Result: 99.4

Problem: Entry COC(=O)[C@@]12OC[C@]34[C@H]([C@@H](O)[C@@H]1O)[C@@]1(C)CC(=O)C(O)=C(C)[C@@H]1C[C@H]3OC(=O)[C@H](OC(=O)/C=C(\C)C(C)C)[C@@H]24 [bruceantin] has what cell viability?
Result: 21

Problem: Entry C(#CCN1CCCC1)CN1CCCC1 has what cell viability?
Result: 103

Now for another entry.
Problem: Entry Cc1sc(C)c2c1CCC=C2c1c[nH]cn1 has what cell viability?
Result: 102

###

Tested on: U2OS
Test description: cell viability relative to DMSO; higher = less toxic
Condition set: 72 h; 10 nM
Give cell viability for every item shown.
One number for each entry, in %.

Problem: Entry CCCN[C@@H]1CCc2c(OC)cccc2[C@@H]1C [AJ76-(+)] has what cell viability?
Result: 105

Problem: Entry Nc1ccc2ncnc(NCCc3ccc(Oc4ccccc4)cc3)c2c1 [EVP4593] has what cell viability?
Result: 96.3

Problem: Entry O=C(CCCN1CCC(n2c(=O)[nH]c3ccccc32)CC1)c1ccc(F)cc1 [benperidol] has what cell viability?
Result: 108

Problem: Entry COc1cc(OC)c(NC(=O)Nc2cc(C)on2)cc1Cl has what cell viability?
Result: 99.9

Problem: Entry CC1Nc2ccc(Cl)cc2S(=O)(=O)N1 (stereo unspecified) [IDRA-21] has what cell viability?
Result: 105

Now for another entry.
Problem: Entry COc1ccc(C2=N[C@@H](c3ccc(Cl)cc3)[C@@H](c3ccc(Cl)cc3)N2C(=O)N2CCNC(=O)C2)c(OC(C)C)c1 [nutlin-3] has what cell viability?
Result: 93.6

###

Tested on: U2OS
Test description: relative viability EC50 (midpoint between 100% and the lowest measured viability); higher = less toxic
Condition set: 72 h
Where a name gives a salt, the structure may show the parent alone.
Assay readout: relative viability EC50

Answered cases to consult:
Problem: Entry CC[C@H]1OC(=O)C[C@@H](O)[C@H](C)[C@@H](O[C@@H]2O[C@H](C)[C@@H](O[C@H]3C[C@@](C)(O)[C@@H](O)[C@H](C)O3)[C@H](N(C)C)[C@H]2O)[C@@H](CC=O)C[C@@H](C)C(=O)/C=C/C(C)=C/[C@@H]1CO[C@@H]1O[C@H](C)[C@@H](O)[C@@H](OC)[C@H]1OC [TYLOSIN TARTRATE] has what relative viability EC50?
Result: 0.566 µM

Problem: Entry CC(C)S(=O)(=O)NC[C@H](C)c1ccc(-c2ccc(CCNS(C)(=O)=O)cc2)cc1 has what relative viability EC50?
Result: > 10 µM

Problem: Entry Cc1cnc(C(=O)N[C@H]2CCCCC/C=C\[C@@H]3C[C@@]3(C(=O)NS(=O)(=O)C3CC3)NC(=O)[C@@H]3C[C@@H](Oc4nc5ccccc5c5ccccc45)CN3C2=O)cn1 has what relative viability EC50?
Result: > 10 µM

Problem: Entry Cc1[nH]cnc1CN1CCc2c(c3ccccc3n2C)C1=O has what relative viability EC50?
Result: > 10 µM

Problem: Entry CSc1ccc2c(c1)[C@H](N1CCN(C)CC1)Cc1ccccc1S2 (racemic) [metitepine] has what relative viability EC50?
Result: > 10 µM

Value sought for every listed compound: relative viability EC50.
1. OCCN1CCN(CCCN2c3ccccc3C=Cc3ccccc32)CC1
2. COc1cccc2c1C(=O)c1c(O)c3c(c(O)c1C2=O)C[C@@](O)(C(=O)CO)C[C@@H]3O[C@H]1C[C@H](N)[C@H](O[C@@H]2CCCCO2)[C@H](C)O1
3. COCc1c(-c2ccc(NC(=O)Nc3cc(C(F)(F)F)ccc3F)c(F)c2)c2c(N)ncnn2c1CN1CCOCC1
4. Cc1c(C(=O)NCc2cccnc2)nn(-c2ccc(Cl)cc2Cl)c1-c1ccc(Cl)cc1
5. C[C@@H]1CN(CCCn2c3ccccc3c3ccccc32)C[C@H](C)N1
6. CCN(CCCCOC(=O)c1ccc(OC)c(OC)c1)C(C)Cc1ccc(OC)cc1 (stereo not given)
7. CC(=O)NS(=O)(=O)c1ccc(NC(=O)c2ccccc2C(=O)O)cc1 [phthalylsulfacetamide]

Result:
["> 10 µM", "1.95 µM", "1.34 µM", "> 10 µM", "> 10 µM", "> 10 µM", "> 10 µM"]

###

Give cell viability for every item shown.
System: Vero E6
Test description: cell viability relative to DMSO; higher = less toxic
Condition set: 72 h; 10 nM
Where a name gives a salt, the structure may show the parent alone.
One number for each entry, in %.

Problem: Entry Clc1ccc(C2(c3ccc(-c4cn[nH]c4)cc3)CCNCC2)cc1 has what cell viability?
Result: 97

Value sought for every listed molecule: cell viability.
1. CC[C@H]1OC(=O)C[C@@H](O)[C@H](C)[C@@H](O[C@@H]2O[C@H](C)[C@@H](O[C@H]3C[C@@](C)(O)[C@@H](O)[C@H](C)O3)[C@H](N(C)C)[C@H]2O)[C@@H](CC=O)C[C@@H](C)C(=O)/C=C/C(C)=C/[C@@H]1CO[C@@H]1O[C@H](C)[C@@H](O)[C@@H](OC)[C@H]1OC [TYLOSIN TARTRATE]
2. CCN(CCO)CCCC(C)Nc1ccnc2cc(Cl)ccc12 (stereo not drawn) [hydroxychloroquine]

Result:
1. 102
2. 95.4

###

Give drug sensitivity score for every item shown.
Test system: HepG2
Test description: drug sensitivity score (DSS) for viability; higher = more toxic; extreme values may be limits of the assay
Condition set: 72 h

Problem: Entry NC(=O)CN1CC(c2ccccc2)CC1=O (stereo not drawn) [phenylpiracetam] has what drug sensitivity score?
Result: 0

Problem: Entry COc1cccc2c1C(=O)c1c(O)c3c(c(O)c1C2=O)C[C@@](O)(C(=O)CO)C[C@@H]3O[C@H]1C[C@H](N)[C@H](O[C@@H]2CCCCO2)[C@H](C)O1 [pirarubicin] has what drug sensitivity score?
Result: 13.5

Problem: Entry Cc1sc2c(c1C)C(c1ccc(Cl)cc1)=N[C@@H](CC(=O)Nc1ccc(O)cc1)c1nnc(C)n1-2 [OTX015] has what drug sensitivity score?
Result: 11.6

Problem: Entry Cn1c2cc([S+](C)[O-])sc2c2cnn(Cc3cccc(N)c3)c(=O)c21 (stereo not drawn) [TEPP-46] has what drug sensitivity score?
Result: 0

Problem: Entry CCCCc1nc(-c2ccc(OCCCN(CC)CC)cc2)cn1-c1ccc(Oc2ccc(Cl)cc2)cc1 [azeliragon] has what drug sensitivity score?
Result: 6.4

Value sought for every listed compound: drug sensitivity score.
1. CN1Cc2ccccc2[C@@H]2c3cccc4[nH]cc(c34)C[C@H]21 [CY208-243]
2. CSc1ccc2c(c1)[C@H](N1CCN(C)CC1)Cc1ccccc1S2 (racemic) [metitepine]
3. CCCCCCCCCCCCCCCCCC(=O)OC[C@@H](O)[C@H]1OC[C@H](O)[C@H]1O [sorbitan-monostearate]
4. c1cc(Nc2cc(C3CC3)n[nH]2)nc(Nc2ccc3[nH]cnc3c2)n1 [APY-29]

Result:
1. 2.1
2. 1.8
3. 0
4. 16.6

Value sought for every listed compound: drug sensitivity score.
1. CS(=O)(=O)c1ccc(-c2cn3ccccc3n2)cc1 [zolimidine]
2. CNS(=O)(=O)CCc1ccc2[nH]cc(C3CCN(C)CC3)c2c1 [naratriptan]

Result:
1: 0; 2: 0

Value sought for every listed compound: drug sensitivity score.
1. CC1=C(C(=O)O)N2C(=O)[C@@H](NC(=O)[C@H](N)c3ccccc3)[C@H]2SC1 [cephalexin]
2. C=C1C(=O)[C@]23[C@H](O)[C@H]1CC[C@H]2[C@@]12CO[C@]3(O)[C@@H](O)[C@@H]1C(C)(C)CC[C@@H]2O [Oridonin (Isodonol)]

Result:
1. 0
2. 3.7
